Hey, just so you know, these numbers are from the RNAGym collection of RNA variant scans (doi:10.1093/nar/gkz1192).

B1: CPEB3 Ribozyme (parent)
chain: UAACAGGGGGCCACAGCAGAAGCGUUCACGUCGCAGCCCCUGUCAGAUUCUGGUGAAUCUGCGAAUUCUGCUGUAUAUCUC

variants of: B1; assay: self-cleavage, relative activity (ratio to wild type); higher = more cleavage; in vitro, sequencing

| Variant Designation | self-cleavage |
| --- | --- |
| A18G U31C | 0.3 |
| G10A A64G | 0.24 |
| G33A C79A | 0.23 |
| A21U C68U | 0.44 |
| C27A U74C | 0.19 |
| C37U A65G | 0.28 |
| C11U U54C | 0.43 |
| G10C C44U | 0.18 |
| A5G A20U | 0.37 |
| A5U G30U | 0.26 |
| G19U U25G | 0.2 |
| G42A G70C | 0.13 |
| G70C A77G | 0.49 |
| G7A A65G | 0.11 |
| U1A A45U | 0.41 |
| C34U A45C | 0.17 |
| G19U U41A | 0.22 |
| C17G A28C | 0.21 |
| C23G U54C | 0.28 |
| G6A A77G | 0.45 |
| U58C C79U | 0.6 |
